PBM binding z-score by entry:
system: PPARg:RXRa 270nM:90nM, anti-RXR (NR concentration 270 nM, RXRa partner concentration 90 nM); test: PBM binding z-score (relative to random genomic background probes); higher = stronger binding; sequences stand for … in GC…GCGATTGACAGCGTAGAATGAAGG
Just the number, please, no unit attached.

Answered cases to consult:
[[record]]
seq = "TGTCAAAGTTCAAAGGTAATGTAAGTATCCACAC"
testresult = 7.39

[[record]]
seq = "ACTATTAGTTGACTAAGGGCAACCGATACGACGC"
testresult = 0.728

[[record]]
seq = "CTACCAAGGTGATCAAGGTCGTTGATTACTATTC"
testresult = 0.508

[[record]]
seq = "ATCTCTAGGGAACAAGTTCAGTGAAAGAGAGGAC"
testresult = 1.08

[[record]]
seq = "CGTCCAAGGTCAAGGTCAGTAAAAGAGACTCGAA"
testresult = 5.92


Supply PBM binding z-score value. Item: `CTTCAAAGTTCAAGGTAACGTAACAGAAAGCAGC` 3.83

###

tested on: RXRa homodimer (NR concentration 180 nM); test: PBM binding z-score (relative to random genomic background probes); higher = stronger binding; sequences stand for … in GC…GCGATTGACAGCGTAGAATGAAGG
PBM binding z-score of 1 or higher: 1. Under 1: 0.

[[record]]
seq = "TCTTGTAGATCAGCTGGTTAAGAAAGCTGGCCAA"
class = 0

[[record]]
seq = "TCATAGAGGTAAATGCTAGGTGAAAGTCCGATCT"
class = 0


Is the recorded value of PBM binding z-score equal to or greater than 1 for this sequence? `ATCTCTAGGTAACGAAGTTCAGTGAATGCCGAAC` 0

Is the recorded value of PBM binding z-score equal to or greater than 1 for this sequence? `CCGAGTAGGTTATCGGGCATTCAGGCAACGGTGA` 0

Is the recorded value of PBM binding z-score equal to or greater than 1 for this sequence? `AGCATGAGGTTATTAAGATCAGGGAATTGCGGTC` 1

Is the recorded value of PBM binding z-score equal to or greater than 1 for this sequence? `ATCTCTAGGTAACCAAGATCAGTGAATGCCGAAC` 0

Is the recorded value of PBM binding z-score equal to or greater than 1 for this sequence? `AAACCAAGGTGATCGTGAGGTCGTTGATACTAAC` 1

Is the recorded value of PBM binding z-score equal to or greater than 1 for this sequence? `CTCGGAAGGTCGTGCTCAGGTGAGTATACCAAAC` 1

Is the recorded value of PBM binding z-score equal to or greater than 1 for this sequence? `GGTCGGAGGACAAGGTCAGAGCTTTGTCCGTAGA` 1

Is the recorded value of PBM binding z-score equal to or greater than 1 for this sequence? `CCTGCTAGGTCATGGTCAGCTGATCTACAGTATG` 1

Is the recorded value of PBM binding z-score equal to or greater than 1 for this sequence? `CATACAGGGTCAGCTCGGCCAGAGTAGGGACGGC` 1

Is the recorded value of PBM binding z-score equal to or greater than 1 for this sequence? `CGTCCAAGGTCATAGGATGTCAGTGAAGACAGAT` 1

Is the recorded value of PBM binding z-score equal to or greater than 1 for this sequence? `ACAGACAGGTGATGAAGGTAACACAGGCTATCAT` 0

Is the recorded value of PBM binding z-score equal to or greater than 1 for this sequence? `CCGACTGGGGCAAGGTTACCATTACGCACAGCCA` 1

Is the recorded value of PBM binding z-score equal to or greater than 1 for this sequence? `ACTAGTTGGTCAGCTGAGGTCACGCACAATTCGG` 1

Is the recorded value of PBM binding z-score equal to or greater than 1 for this sequence? `CCTTACGGGTCACTGACAGGTTACAGCATTTGGA` 1

Is the recorded value of PBM binding z-score equal to or greater than 1 for this sequence? `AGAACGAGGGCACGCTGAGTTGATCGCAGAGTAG` 1

Is the recorded value of PBM binding z-score equal to or greater than 1 for this sequence? `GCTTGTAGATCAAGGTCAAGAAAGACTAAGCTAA` 1

Is the recorded value of PBM binding z-score equal to or greater than 1 for this sequence? `CCTACTGGGCCAGTCAGAGGTCATTGATCATATG` 1

Is the recorded value of PBM binding z-score equal to or greater than 1 for this sequence? `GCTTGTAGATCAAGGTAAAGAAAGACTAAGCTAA` 0

Is the recorded value of PBM binding z-score equal to or greater than 1 for this sequence? `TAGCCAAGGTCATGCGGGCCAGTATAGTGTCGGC` 1

Is the recorded value of PBM binding z-score equal to or greater than 1 for this sequence? `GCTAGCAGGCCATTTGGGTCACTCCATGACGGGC` 0
